- Test system: Nonstructural protein 5A (Hepatitis C virus), Q5L478 [Y93H]
- Sequence (Q5L478 entry or part of it Y93H): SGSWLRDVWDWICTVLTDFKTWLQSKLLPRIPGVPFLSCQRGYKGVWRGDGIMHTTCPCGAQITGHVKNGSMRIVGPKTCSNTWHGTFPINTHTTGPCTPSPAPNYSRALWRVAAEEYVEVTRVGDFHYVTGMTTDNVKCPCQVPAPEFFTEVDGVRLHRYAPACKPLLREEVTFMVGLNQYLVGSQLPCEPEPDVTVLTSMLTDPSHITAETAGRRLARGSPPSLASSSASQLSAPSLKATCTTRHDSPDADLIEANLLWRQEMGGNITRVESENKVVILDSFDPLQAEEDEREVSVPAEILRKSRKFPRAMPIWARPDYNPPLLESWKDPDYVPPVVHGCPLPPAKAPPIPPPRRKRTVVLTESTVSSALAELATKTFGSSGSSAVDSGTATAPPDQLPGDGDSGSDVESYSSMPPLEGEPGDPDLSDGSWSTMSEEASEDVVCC
- Measurement protocol: Inhibition of NS5A Y93H mutant in HCV genotype 1a assessed as reduction in replicon RNA level after 3 days by cell based RT-PCR method
- Condition notes: Hepatitis C virus subtype 1a
Measured property: EC90 (nM)
Express your answer in nM, writing the number without its unit.

Missing value: EC90, Nonstructural protein 5A (Hepatitis C virus), Q5L478 [Y93H], entry COC(=O)N[C@H](C(=O)N1CCC[C@H]1c1ncc(-c2ccc3c(c2)cc2n3C(c3cccc(OC)c3)Oc3cc(-c4cnc([C@@H]5C[C@@H](F)CN5C(=O)[C@@H](NC(=O)OC)C(C)C)[nH]4)cc(F)c3-2)[nH]1)C(C)C (some centres undefined) . Fill in?
0.55

Missing value: EC90, Nonstructural protein 5A (Hepatitis C virus), Q5L478 [Y93H], entry COC(=O)N[C@H](C(=O)N1C[C@H](OC(F)F)C[C@H]1c1ncc(-c2cc(F)c3c(c2)OC(c2cccc(OC)c2)n2c-3cc3cc(-c4cnc([C@@H]5C[C@@H](OC(F)F)CN5C(=O)[C@@H](NC(=O)OC)C(C)C)[nH]4)ccc32)[nH]1)C(C)C (some centres undefined) . Fill in?
5.27

Missing value: EC90, Nonstructural protein 5A (Hepatitis C virus), Q5L478 [Y93H], entry COC(=O)N[C@H](C(=O)N1CCC[C@H]1c1ncc(-c2cc(F)c3c(c2)OC(c2ccc4c(c2)OCCC4)n2c-3cc3cc(-c4cnc([C@@H]5C[C@H]6C[C@H]6N5C(=O)[C@@H](NC(=O)OC)C(C)C)[nH]4)ccc32)[nH]1)C(C)C (some centres undefined) . Fill in?
0.12

Missing value: EC90, Nonstructural protein 5A (Hepatitis C virus), Q5L478 [Y93H], entry COC(=O)N[C@H](C(=O)N1[C@@H]2C[C@@H]2C[C@H]1c1ncc(-c2cc(F)c3c(c2)OC(c2cccc(OC)c2)n2c-3cc3cc(-c4cnc([C@@H]5C[C@H]6C[C@H]6N5C(=O)[C@@H](NC(=O)OC)C(C)C)[nH]4)ccc32)[nH]1)C(C)C (some centres undefined) . Fill in?
0.51

====

- Measurement protocol: Oral bioavailability in rat at 10 mg/kg
- Type: ADME, organism-based
- Condition notes: in vivo
Measured property: bioavailability (%)
Express your answer in %, writing the number without its unit.

What bioavailability value was documented for this compound, COC(=O)N[C@H](C(=O)N1CCC[C@H]1c1ncc(-c2ccc3c(c2)OC(c2cccc(OC)c2)n2c-3cc3cc(-c4cnc([C@@H]5C[C@H]6C[C@H]6N5C(=O)[C@@H](NC(=O)OC)C(C)C)[nH]4)ccc32)[nH]1)C(C)C (some centres not stated) ?
13

What bioavailability value was documented for this compound, COC(=O)N[C@H](C(=O)N1CCC[C@H]1c1ncc(-c2cc(F)c3c(c2)OC(c2ccc4c(c2)OCCC4)n2c-3cc3cc(-c4cnc([C@@H]5C[C@H]6C[C@H]6N5C(=O)[C@@H](NC(=O)OC)C(C)C)[nH]4)ccc32)[nH]1)C(C)C (some centres not stated) ?
4

====

- Test system: Nonstructural protein 5A (Hepatitis C virus), Q5L478 [Y93H]
- Measurement protocol: Inhibition of NS5A Y93H mutant in HCV genotype 1a assessed as reduction in replicon RNA level after 3 days by cell based RT-PCR method
- Condition notes: Hepatitis C virus subtype 1a
Consider the following molecules; for each one, report its EC90.
Express your answer in nM, writing the number without its unit.

Missing value: EC90, Nonstructural protein 5A (Hepatitis C virus), Q5L478 [Y93H], entry COC(=O)N[C@H](C(=O)N1C[C@H](F)C[C@H]1c1ncc(-c2cc(F)c3c(c2)OC(c2cccc(OC)c2)n2c-3cc3cc(-c4cnc([C@@H]5C[C@H]6C[C@H]6N5C(=O)[C@@H](NC(=O)OC)C(C)C)[nH]4)ccc32)[nH]1)C(C)C (stereo partly drawn) . Fill in?
5.15

Missing value: EC90, Nonstructural protein 5A (Hepatitis C virus), Q5L478 [Y93H], entry COC(=O)N[C@H](C(=O)N1[C@@H]2CCCC[C@@H]2C[C@H]1c1ncc(-c2cc(F)c3c(c2)OC(c2cccc(OC)c2)n2c-3cc3cc(-c4cnc([C@@H]5C[C@H]6CCCC[C@H]6N5C(=O)[C@@H](NC(=O)OC)C(C)C)[nH]4)ccc32)[nH]1)C(C)C (stereo partly drawn) . Fill in?
37.6

Missing value: EC90, Nonstructural protein 5A (Hepatitis C virus), Q5L478 [Y93H], entry COC(=O)N[C@H](C(=O)N1C[C@H](F)C[C@H]1c1ncc(-c2cc(F)c3c(c2)OC(c2cccc(OC)c2)n2c-3cc3cc(-c4cnc([C@@H]5C[C@@H](F)CN5C(=O)[C@@H](NC(=O)OC)C(C)C)[nH]4)ccc32)[nH]1)C(C)C (stereo partly drawn) . Fill in?
0.065

Missing value: EC90, Nonstructural protein 5A (Hepatitis C virus), Q5L478 [Y93H], entry COC(=O)N[C@H](C(=O)N1CC2(C[C@H]1c1ncc(-c3cc(F)c4c(c3)OC(c3cccc(OC)c3)n3c-4cc4cc(-c5cnc([C@@H]6CC7(CN6C(=O)[C@@H](NC(=O)OC)C(C)C)OCCCO7)[nH]5)ccc43)[nH]1)OCCCO2)C(C)C (mixture of isomers) . Fill in?
0.44

Missing value: EC90, Nonstructural protein 5A (Hepatitis C virus), Q5L478 [Y93H], entry COC(=O)N[C@H](C(=O)N1CCC[C@H]1c1ncc(-c2cc(F)c3c(c2)OC(c2ccc4c(c2)OCCC4)n2c-3cc3cc(-c4cnc([C@@H]5CCCN5C(=O)[C@@H](NC(=O)OC)C(C)C)[nH]4)ccc32)[nH]1)C(C)C (stereo partly drawn) . Fill in?
0.48

Missing value: EC90, Nonstructural protein 5A (Hepatitis C virus), Q5L478 [Y93H], entry COC(=O)N[C@H](C(=O)N1CCC[C@H]1c1ncc(-c2cc(F)c3c(c2)OC(c2ccccc2)n2c-3cc3cc(-c4cnc([C@@H]5C[C@H]6C[C@H]6N5C(=O)[C@@H](NC(=O)OC)C(C)C)[nH]4)ccc32)[nH]1)C(C)C (stereo partly drawn) . Fill in?
3.17

Missing value: EC90, Nonstructural protein 5A (Hepatitis C virus), Q5L478 [Y93H], entry COC(=O)N[C@H](C(=O)N1CCC[C@H]1c1ncc(-c2ccc3c(c2)cc2n3C(c3ccccc3)Oc3cc(-c4cnc([C@@H]5C[C@@H](F)CN5C(=O)[C@@H](NC(=O)OC)C(C)C)[nH]4)cc(F)c3-2)[nH]1)C(C)C (stereo partly drawn) . Fill in?
1.4

Missing value: EC90, Nonstructural protein 5A (Hepatitis C virus), Q5L478 [Y93H], entry COC(=O)N[C@H](C(=O)N1CCC[C@H]1c1ncc(-c2cc(F)c3c(c2)OC(c2cccc(OC)c2)n2c-3cc3cc(-c4cnc([C@@H]5C[C@H]6C[C@H]6N5C(=O)[C@@H](NC(=O)OC)C(C)C)[nH]4)ccc32)[nH]1)C(C)C (stereo partly drawn) . Fill in?
1.64

====

Consider the following compounds; for each one, report its EC90.
- System: Hepatitis C virus subtype 2b
- Measurement protocol: Inhibition of NS5A in HCV genotype 2b assessed as reduction in replicon RNA level after 3 days by cell based RT-PCR method
Express your answer in nM, writing the number without its unit.

What EC90 value was documented for this compound, COC(=O)N[C@H](C(=O)N1CCC[C@H]1c1ncc(-c2ccc3c(c2)cc2n3C(c3cccc(OC)c3)Oc3cc(-c4cnc([C@@H]5C[C@@H](F)CN5C(=O)[C@@H](NC(=O)OC)C(C)C)[nH]4)ccc3-2)[nH]1)C(C)C (some centres undefined) ?
60.8

What EC90 value was documented for this compound, COC(=O)N[C@H](C(=O)N1[C@@H]2CC(F)(F)[C@@H]2C[C@H]1c1ncc(-c2cc(F)c3c(c2)OC(c2cccc(OC)c2)n2c-3cc3cc(-c4cnc([C@@H]5C[C@@H]6[C@@H](CC6(F)F)N5C(=O)[C@@H](NC(=O)OC)C(C)C)[nH]4)ccc32)[nH]1)C(C)C (some centres undefined) ?
58

What EC90 value was documented for this compound, COC(=O)N[C@H](C(=O)N1[C@@H]2CCCC[C@@H]2C[C@H]1c1ncc(-c2cc(F)c3c(c2)OC(c2cccc(OC)c2)n2c-3cc3cc(-c4cnc([C@@H]5C[C@H]6CCCC[C@H]6N5C(=O)[C@@H](NC(=O)OC)C(C)C)[nH]4)ccc32)[nH]1)C(C)C (some centres undefined) ?
21

What EC90 value was documented for this compound, COC(=O)N[C@H](C(=O)N1CC[C@H](OC)[C@H]1c1ncc(-c2cc(F)c3c(c2)OC(c2cccc(OC)c2)n2c-3cc3cc(-c4cnc([C@@H]5[C@@H](OC)CCN5C(=O)[C@@H](NC(=O)OC)C(C)C)[nH]4)ccc32)[nH]1)C(C)C (some centres undefined) ?
322

Cited source for all entries: ChEMBL document CHEMBL3853354
